The values you see were collected from patent US20260317367A1.

Experiment: Final pH of the solubility sample solutions in aqueous media
Assay type: physicochemical
Conditions: FaSSGF (blank 1.5, 1.6)
Counter-ions that a name gives are not always drawn.
MEASUREMENT_KIND: pH of the solubility sample, FaSSGF

INSERT INTO assay_data (compound, quantitative_result) VALUES
  ('CC(CCCC(C)(C)O)C1CCC2C3CC=C4CC(OS(=O)(=O)O)CCC4(C)C3CCC12C (stereo not shown) [Salt #10]', 1.6),
  ('CC(CCCC(C)(C)O)C1CCC2C3CC=C4CC(OS(=O)(=O)O)CCC4(C)C3CCC12C (stereo not shown) [Salt #1]', 1.6),
  ('CC(CCCC(C)(C)O)C1CCC2C3CC=C4CC(OS(=O)(=O)O)CCC4(C)C3CCC12C (stereo not shown) [Salt #8]', 1.6),
  ('CC(CCCC(C)(C)O)C1CCC2C3CC=C4CC(OS(=O)(=O)O)CCC4(C)C3CCC12C (stereo not shown) [Salt #3]', 1.6),
  ('CC(CCCC(C)(C)O)C1CCC2C3CC=C4CC(OS(=O)(=O)O)CCC4(C)C3CCC12C (stereo not shown) [Salt #7]', 1.6),
  ('C[C@H](CCCC(C)(C)O)[C@H]1CC[C@H]2[C@@H]3CC=C4C[C@@H](OS(=O)(=O)O)CC[C@]4(C)[C@H]3CC[C@]12C [Salt #14]', 1.6),
  ('CC(CCCC(C)(C)O)C1CCC2C3CC=C4CC(OS(=O)(=O)O)CCC4(C)C3CCC12C (stereo not shown) [Salt #9]', 1.6),
  ('CC(CCCC(C)(C)O)C1CCC2C3CC=C4CC(OS(=O)(=O)O)CCC4(C)C3CCC12C (stereo not shown) [Salt #2]', 1.6),
  ('CC(CCCC(C)(C)O)C1CCC2C3CC=C4CC(OS(=O)(=O)O)CCC4(C)C3CCC12C (stereo not shown) [Salt #6]', 1.6),
  ('CC(CCCC(C)(C)O)C1CCC2C3CC=C4CC(OS(=O)(=O)O)CCC4(C)C3CCC12C (stereo not shown) [Salt #5]', 1.6),
  ('CC(CCCC(C)(C)O)C1CCC2C3CC=C4CC(OS(=O)(=O)O)CCC4(C)C3CCC12C (stereo not shown) [Salt #12]', 1.6),
  ('CC(CCCC(C)(C)O)C1CCC2C3CC=C4CC(OS(=O)(=O)O)CCC4(C)C3CCC12C (stereo not shown) [Salt #4]', 1.6),
  ('CC(CCCC(C)(C)O)C1CCC2C3CC=C4CC(OS(=O)(=O)O)CCC4(C)C3CCC12C (stereo not shown) [Salt #13]', 1.6);
